Data provenance is patent US20260216326A1.

Consider the following binders; for each one, report its Kd.
# System Under Test: T1, human TL1A (Fitzgerald #30R-AT070) (human, UniProt O95150 72-251, limits assumed)
# T1 construct: Coated on the ELISA plate at 1 ug/mL; also called TNFSF15
# T1 sequence (looked up): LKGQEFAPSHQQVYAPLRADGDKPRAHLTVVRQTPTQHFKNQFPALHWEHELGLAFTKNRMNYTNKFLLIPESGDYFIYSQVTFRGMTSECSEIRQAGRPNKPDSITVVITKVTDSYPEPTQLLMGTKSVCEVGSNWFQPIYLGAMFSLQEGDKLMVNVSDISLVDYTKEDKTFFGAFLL
# Method: ELISA titration, coated human TL1A, culture supernatant
Write the answer as a number in nM, unit excluded.

Supply measured Kd of A132 (antibody, human IgG1, V domains shown, human IgG1/kappa (pFuse vectors), culture supernatant) VH: QVQLVQSGAEVKKPGASVKVSCKASGFDIQDTYMHWVRQAPGQGLEWMGRIEPASGHIKYDPKFQGRATMTRDTSTSTVYMELSSLRSEDTAVYYCARSGGLPDWWGQGTTVTVSS VL: EIVLTQSPGTLSLSPGERATLSCRASSSVSYMYWYQQKPGQAPRPLIYATSNLASGIPDRFSGSGSGTDFTLTISRLEPEDFAVYYCQQWKGNPRTFGGGTKLEIK in your reply.
0.062

Supply measured Kd of A116 (antibody, human IgG1, V domains shown, human IgG1/kappa (pFuse vectors), culture supernatant) VH: QVQLVQSGAEVKKPGASVKVSCKASGFDIQDTYMHWVRQAPGQGLEWMGRIEPASGHIKYDPKFQVRVTITRDTSTSTVYMELSSLRSEDTAVYYCARSGGLPDWWGQGTTVTVSS VL: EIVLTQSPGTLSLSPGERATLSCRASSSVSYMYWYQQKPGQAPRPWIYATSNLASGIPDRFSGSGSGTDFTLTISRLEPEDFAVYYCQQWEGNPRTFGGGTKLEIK in your reply.
0.053
